- System: Pseudogymnoascus destructans 20631-21;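 further: biolog Phenotype Microarray plates PM21–25, OD595 followed daily over 11 days, growth curves converted to index, mean of two independent experiments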
- Experiment: growth activity index (DuctApe, 0 = no growth, 9 = maximal growth) (index 0-9); higher = more fungal growth (less inhibition), active = 0 or less; extreme values may be limits of the assay
- Condition Info: concentration level (1-4, increasing; Biolog proprietary): 4; temperature: 13 °C; YPD
Structures can show the parent of a compound that is named as a salt.
Please state which outcome applies, choosing from active, inactive

Field: outcome | Entry: NC[C@H]1O[C@H](O[C@H]2[C@H](O)[C@@H](O[C@H]3O[C@H](CO)[C@@H](O)[C@H](N)[C@H]3O)[C@H](N)C[C@@H]2N)[C@H](N)C[C@@H]1O [Tobramycin] (Biolog plate: PM25) inactive

Field: outcome | Entry: COc1cc(/C=C/C(=O)O)ccc1O [Ferulic acid] (Biolog plate: PM25) inactive

Field: outcome | Entry: COc1ccc2cc3[n+](cc2c1OC)CCc1cc2c(cc1-3)OCO2 [Berberine Chloride] (Biolog plate: PM24) inactive

Field: outcome | Entry: O=C([O-])c1ccccc1.[Na+] [Sodium Benzoate] (Biolog plate: PM24) inactive

Field: outcome | Entry: CCCCCCCCCCCC[N+](C)(C)C [Dodecyltrimethyl ammonium bromide] (Biolog plate: PM21) inactive

Field: outcome | Entry: N=C(N)N [Guanidine hydrochloride] (Biolog plate: PM21) inactive

Field: outcome | Entry: On1ccccc1=S [1-Hydroxypyridine-2-thione (pyrithione)] (Biolog plate: PM21) inactive

Field: outcome | Entry: NO [Hydroxylamine] (Biolog plate: PM23) active

Field: outcome | Entry: [Cl][Pd][Cl] [Palladium(II) Chloride] (Biolog plate: PM25) inactive

Field: outcome | Entry: O=S(=O)([O-])[O-].[Cu+2] [Copper (II) sulfate] (Biolog plate: PM21) inactive

Field: outcome | Entry: CN(C)CCCN1c2ccccc2Sc2ccc(Cl)cc21 [Chlorpromazine] (Biolog plate: PM23) inactive

Field: outcome | Entry: O=[Si](O)O [Sodium metasilicate] (Biolog plate: PM24) inactive

Field: outcome | Entry: O=c1[nH]c(=O)n([C@H]2C[C@H](O)[C@@H](CO)O2)cc1F [Fluorodeoxyuridine] (Biolog plate: PM25) inactive

Field: outcome | Entry: N=C(N)c1ccccc1 [Benzamidine] (Biolog plate: PM22) active

Field: outcome | Entry: NCC(=O)NO [Glycine hydroxamate] (Biolog plate: PM22) active

Field: outcome | Entry: N[C@H](CO)C(=O)O [D-Serine] (Biolog plate: PM22) inactive

Field: outcome | Entry: N=C(N)c1ccc(OCCCCCOc2ccc(C(=N)N)cc2)cc1 [Pentamidine Isethionate] (Biolog plate: PM24) inactive

Field: outcome | Entry: O=NO [Sodium Nitrite] (Biolog plate: PM23) inactive

Field: outcome | Entry: NNC(=O)c1ccncc1 [Isoniazid] (Biolog plate: PM24) inactive

Field: outcome | Entry: NC(N)=NCCC[C@H](N)C(=O)NO [L-Arginine hydroxamate] (Biolog plate: PM22) inactive

Field: outcome | Entry: O=C(O)C(O)C(O)C(=O)O (stereo unspecified) [Tartaric acid] (Biolog plate: PM25) inactive
